Data origin, for the record: ChEMBL document CHEMBL3400047

// endpoint log10(Ki) / system 5-hydroxytryptamine receptor 1A (Homo sapiens, UniProt P08908)
Short version: log10 scale, Ki, nM.

O=c1c2ccccc2ncn1CCCCCN1CCN(c2cccc(Cl)c2)CC1 :: 0.80
CCOc1ccccc1N1CCN(CCCCCn2cnc3sc(C)c(C)c3c2=O)CC1 :: 0.01
Cc1sc2nc(CCCCCN3CCN(Cc4ccccc4)CC3)[nH]c(=O)c2c1C :: 2.56
Cc1sc2nc(CCCCCN3CCN(c4ccccc4)CC3)[nH]c(=O)c2c1C :: 1.18

Query string: Please tell me the measured log10(Ki) for O=c1c2ccccc2ncn1CCCCCN1CCN(Cc2ccccc2)CC1 ; system: 5-hydroxytryptamine receptor 1A (Homo sapiens, UniProt P08908).
Sequence (P08908 whole entry): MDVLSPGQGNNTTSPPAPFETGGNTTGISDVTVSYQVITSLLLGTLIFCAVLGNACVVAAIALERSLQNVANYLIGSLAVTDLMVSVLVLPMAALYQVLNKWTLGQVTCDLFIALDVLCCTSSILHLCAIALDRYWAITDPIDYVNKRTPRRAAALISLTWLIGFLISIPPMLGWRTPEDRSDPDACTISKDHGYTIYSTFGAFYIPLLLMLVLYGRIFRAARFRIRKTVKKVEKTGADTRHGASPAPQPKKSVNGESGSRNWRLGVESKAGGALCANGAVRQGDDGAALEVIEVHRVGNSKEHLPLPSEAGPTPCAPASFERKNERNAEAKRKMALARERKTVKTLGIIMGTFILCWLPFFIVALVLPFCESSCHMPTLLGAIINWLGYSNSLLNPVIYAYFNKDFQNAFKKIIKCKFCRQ
Result string: 2.43
